target: UniProtKB P08684
Sequence (P08684 whole entry): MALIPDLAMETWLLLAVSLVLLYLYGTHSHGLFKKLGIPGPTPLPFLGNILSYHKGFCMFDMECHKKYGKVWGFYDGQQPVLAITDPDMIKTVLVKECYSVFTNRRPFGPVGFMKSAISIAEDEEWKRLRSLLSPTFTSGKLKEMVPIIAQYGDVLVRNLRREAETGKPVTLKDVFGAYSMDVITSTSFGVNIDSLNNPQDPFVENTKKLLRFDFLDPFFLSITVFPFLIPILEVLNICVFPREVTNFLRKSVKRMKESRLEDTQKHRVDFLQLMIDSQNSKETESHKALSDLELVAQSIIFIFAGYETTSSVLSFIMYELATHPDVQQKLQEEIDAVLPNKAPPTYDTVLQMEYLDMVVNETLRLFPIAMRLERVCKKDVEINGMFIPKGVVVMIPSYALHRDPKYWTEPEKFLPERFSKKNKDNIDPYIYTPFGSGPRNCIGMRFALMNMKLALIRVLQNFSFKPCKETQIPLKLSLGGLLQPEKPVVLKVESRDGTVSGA
measured.endpoint: IC50 (nM)

> print(dat)
                            compound.string  numeric.value
1  CCCCOc1nc(N)c2[nH]cc(Cc3ccc(CN4CCCC4)cc3)c2n1            590

---

assay: Phase 1 single oral dose pharmacokinetics in healthy adults; type: in vivo; details: both sexes, human, plasma, oral; before 1.25 mg fed dose, on average 41 days after 1.25 mg fasted dose, mean ± SD; read-out: Predose Level
measured.endpoint: concentration at 41 days (pg/mL)

> print(dat)
                                   compound  measurement.units  numeric.value
1  CCCCOc1nc(N)c2[nH]cc(Cc3ccc(CN4CCCC4)cc3)c2n1 [Compound 4]              pg/mL           1.85
